// values below are reported pIC50
Molecular target: Substance-P receptor (Cavia porcellus, UniProt P30547)
Sequence (P30547 whole entry): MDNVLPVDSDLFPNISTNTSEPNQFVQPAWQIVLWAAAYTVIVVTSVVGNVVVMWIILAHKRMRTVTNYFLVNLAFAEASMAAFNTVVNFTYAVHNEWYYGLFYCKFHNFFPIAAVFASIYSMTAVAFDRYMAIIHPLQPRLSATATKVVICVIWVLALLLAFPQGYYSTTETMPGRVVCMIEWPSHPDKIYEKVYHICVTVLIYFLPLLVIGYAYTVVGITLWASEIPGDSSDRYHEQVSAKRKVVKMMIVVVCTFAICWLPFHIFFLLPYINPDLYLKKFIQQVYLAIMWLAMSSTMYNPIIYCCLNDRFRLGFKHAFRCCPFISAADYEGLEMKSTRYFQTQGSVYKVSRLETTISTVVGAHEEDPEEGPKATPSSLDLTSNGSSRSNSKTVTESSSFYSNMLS
Experiment: Neurokinin (NK1) receptor antagonistic activity was evaluated.
pIC50: −log10 of the molar value.

{"molecule": "CC(C)Oc1cccc(CC(=O)N2CCCC(CC[N+]34CCC(c5ccccc5)(CC3)CC4)(c3ccc(Cl)c(Cl)c3)C2)c1.[Cl-] (racemic)", "pIC50": 9.51}
{"molecule": "CC(C)Oc1cccc(CC(=O)N2CCCC(CC[N+]3(C)CCC4(CC3)NC(=O)Cc3ccccc34)(c3ccc(Cl)c(Cl)c3)C2)c1 (stereo in doubt; 5bb)", "pIC50": 7.46}
{"molecule": "CC[N+]1(CCC2(c3ccc(Cl)c(Cl)c3)CCCN(C(=O)Cc3cccc(OC(C)C)c3)C2)CCC2(CC1)NCCc1ccccc12 (centres undefined)", "pIC50": 8.32}
{"molecule": "CC(C)Oc1cccc(CC(=O)N2CCCC(CC[N+]3(Cc4ccccc4)CCC4(CC3)NCCc3ccccc34)(c3ccc(Cl)c(Cl)c3)C2)c1 (centres undefined)", "pIC50": 7.80}
{"molecule": "CC(C)Oc1cccc(CC(=O)N2CCCC(CC[N+]3(C)CCC4(CC3)c3ccccc3C[S+]4[O-])(c3ccc(Cl)c(Cl)c3)C2)c1 (centres undefined)", "pIC50": 8.20}
{"molecule": "CN(CC(CCN1CCC2(CC1)OCc1ccccc12)c1ccc(Cl)c(Cl)c1)C(=O)c1ccccc1 (centres undefined)", "pIC50": 6.15}
{"molecule": "CC(C)Oc1cccc(CC(=O)N2CCCC(CCN3C4CCC3CC3(C4)OCc4ccccc43)(c3ccc(Cl)c(Cl)c3)C2)c1 (centres undefined)", "pIC50": 6.98}
{"molecule": "CC(C)Oc1cccc(CC(=O)N2CCCC(CCN3CCC4(CC3)NC(=O)Cc3ccccc34)(c3ccc(Cl)c(Cl)c3)C2)c1 (centres undefined)", "pIC50": 7.27}
{"molecule": "CC(C)Oc1cccc(CC(=O)N2CCCC(CCN3CCC4(CC3)NCCc3ccccc34)(c3ccc(Cl)c(Cl)c3)C2)c1 (centres undefined)", "pIC50": 7.51}
{"molecule": "CC(C)Oc1cccc(CC(=O)N2CCCC(CCN3CCC4(CC3)OCc3ccccc34)(c3ccc(Cl)c(Cl)c3)C2)c1 (centres undefined)", "pIC50": 7.80}
{"molecule": "CN(CC(CCN1CCC2(CC1)NCCc1ccccc12)c1ccc(Cl)c(Cl)c1)C(=O)c1ccccc1 (centres undefined)", "pIC50": 7.24}
{"molecule": "CC(C)Oc1cccc(CC(=O)N2CCCC(CCN3CCC4(CC3)c3ccccc3C[S+]4[O-])(c3ccc(Cl)c(Cl)c3)C2)c1 (centres undefined)", "pIC50": 7.74}
{"molecule": "CC(C)Oc1cccc(CC(=O)N2CCCC(CC[N+]3(C)CCC4(CC3)NC(=O)Cc3ccccc34)(c3ccc(Cl)c(Cl)c3)C2)c1.[I-] (stereo in doubt; 5ba)", "pIC50": 8.72}
{"molecule": "CC(C)Oc1cccc(CC(=O)N2CCCC(CC[N+]3(C)CCC4(CC3)NCCc3ccccc34)(c3ccc(Cl)c(Cl)c3)C2)c1.[I-] (centres undefined)", "pIC50": 8.70}
